# System tested: T1, CD71 apical domain (UniProt P02786 189-383, limits assumed)
# T1 construct: domain: Apical domain
# T1 sequence (P02786 189-383 limits assumed): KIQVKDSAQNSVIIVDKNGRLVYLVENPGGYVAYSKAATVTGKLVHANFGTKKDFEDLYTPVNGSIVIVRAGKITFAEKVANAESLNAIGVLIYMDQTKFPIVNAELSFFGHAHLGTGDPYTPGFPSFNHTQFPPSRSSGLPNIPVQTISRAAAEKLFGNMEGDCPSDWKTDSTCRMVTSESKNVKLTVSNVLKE
# Method summary: solution ELISA
Measure name: Apical domain, RLU (RLU)

Binder	Measure name	Recorded measurement
SEQ ID NO 199 (designed binder, FN3 domain) MLPAPKNLVVSRVTEDSARLSWTAPDAAFDSFYIAYAEPRPDGEAIHLWVPGSERSYDLTGLKPGTEYSVLIHGVKGGLLSSPLHADFTT	Apical domain, RLU	5.56e+06
SEQ ID NO 157 (designed binder, FN3 domain) MLPAPKNLVVSRVTEDSARLSWTAPDAAFDSFYIAYAEPRPDGEAILLHVPGSERSYDLTGLKPGTEYSVLIHGVKGGLLSSPLSAISTT	Apical domain, RLU	7.39e+06
SEQ ID NO 114 (designed binder, FN3 domain) MLPAPKNLVVSRVTEDSARLSWTTPDAAFDSFFIGYLEPQPPGEAISLQVPGSERSYDLTGLKPGTEYNVTIQGVKGGFPSSPLFAVFTT	Apical domain, RLU	6.22e+06
SEQ ID NO 175 (designed binder, FN3 domain) MLPAPKNLVVSRVTEDSARLSWTAPDAAFDSFRISYCETFYHGEAIVLTVPGSERSYDLTGLKPGTEYSVLIHGVKGGLLSSPLIAKFTT	Apical domain, RLU	7.16e+06
